# reported GFP response, % of DMSO; entries follow
experiment: modulators of CIT2-GFP expression in yeast, confirmation, S. cerevisiae, GFP fusion, cherry picks, mother/daughter gates (AID 2274); conditions: S. cerevisiae CIT2-GFP strain, flow cytometry, 3 h; at 10 µM; active compounds read high
Please give a number only; it is taken to be in %.

>>> measuredvalue("CCOC(=O)/C(=N\\NC(=O)c1ccccc1)c1ccccc1")
101
>>> measuredvalue("Cc1cc(N2CCCCC2)n2ncc(-c3ccccc3)c2n1")
104
>>> measuredvalue("COc1ccc(N=Cc2nc(-c3ccccc3)oc2OC(=O)c2ccccc2)cc1")
93.4
>>> measuredvalue("O=C(O)c1ccccc1C(=O)Nc1ccccc1")
102
>>> measuredvalue("CCCn1c(=N)c(C(=O)NC2CCCC2)cc2c(=O)n3cccc(C)c3nc21")
104

stdin: So what does the record say about GFP response, % of DMSO for COc1ccc(NC(=O)C2CCN(S(=O)(=O)c3ccc(OC)c(OC)c3)CC2)c(OC)c1 ?
stdout: 103
